# system.name: T1, HLA-DRB1*1101 (human)
# T1 construct: human MHC class II allotype
# method.summary: competitive MHC class II binding assay; competitor: control peptide Influenza haemagglutinin 307-319;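 note: each peptide was tested for its capacity to displace a known reference binder from human MHC class II allotypes, and its IC50 is expressed relative to that of the reference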
Lab note: anything with ratio of IC50 to that of the control peptide below 6 ratio is marked Yes; values at 6 ratio or higher are marked No.

Is ratio of IC50 to that of the control peptide of RGKPFQLEAVFEANQNT [HDM21B] strictly below 6 ratio?
Yes

Is ratio of IC50 to that of the control peptide of KPFQLEAVFEANQNTK [HDM21A] strictly below 6 ratio?
No

Is ratio of IC50 to that of the control peptide of EAVFEANQNTKTAK [HDM22A] strictly below 6 ratio?
No

Is ratio of IC50 to that of the control peptide of LDMRNIQVRGLKQ [HDM33] strictly below 6 ratio?
No

Is ratio of IC50 to that of the control peptide of TAIFQDTVRAEMTK [HDM48] strictly below 6 ratio?
No

Is ratio of IC50 to that of the control peptide of RNIQVRGLKQMKRVG [HDM34] strictly below 6 ratio?
Yes

Is ratio of IC50 to that of the control peptide of RGLKQMKRVGDAN [HDM35] strictly below 6 ratio?
Yes
